B1: TPR t1 (parent)
chain: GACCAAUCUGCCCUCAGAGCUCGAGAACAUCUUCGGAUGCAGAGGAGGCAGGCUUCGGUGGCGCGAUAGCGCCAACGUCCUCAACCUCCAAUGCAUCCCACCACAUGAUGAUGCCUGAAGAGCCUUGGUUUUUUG

Variants of: B1
assay_method_text: polymerase ribozyme fitness, log enrichment relative to wild type (log ratio); higher = more active; in vitro selection for triplet polymerase activity
value_kind: polymerase ribozyme fitness (log ratio)

mutation_list	recorded_value
A6G U30C G63A A111U G127C	-5.37
C12U A41C G60C G128C	-3.6
G63U C97U U112C A121C	0.0312
G44A C89A	-1.04
C102U U109A	-6.07
A100C C124A	0.995
C28U A111C	-3.29
C56G G61C A95G A111U	-6.34
A6G U112A U125G U129A	-1.7
C101A C114A	-2.19
U54A U55G G61A C80U	-0.516
G25A	-4.68
C4A A5G	-1.02
G71C G127C	-2.16
C28G A95U U125A	-3.63
A27U U96C C124G	-1.73
A2G G35C	-3.63
G23A G61A U87C	-6.59
G71A U106C	-1.36
G44U C82U U106G G120A	-0.344
U112G U130A	0.613
A46U U112A	0.36
A6C A27G A121C	-0.0909
G23U G52A C53G C115U	-7.2
A2U G65A C80G A84G C115U G117A G127U	-5.92
U59G G60A C85A	-2.54
C73A C101A	-1
A50U G57U G135A	-2.6
C94G U130A G135U	-1.4
C11U U33A	-4.31
G51U G52C C80U	-3.13
C11G A41U G71C A90G G110U G135A	-5.24
U9A C73U G113A	-0.0138
A46U C73G G77U C101A C104U	-2.96
C73A C123U	1.47
A18U C82A U92A	-4.27
U9A C22U C49A C86A	-5.1
C13U C64U U92C U96C	-1.14
C11G U21A C53A C97G	-3.53
C11G A18C	-1.71
A27G C40G	-1.89
G47C C62U C88U	-1.75
G57C G63A G69U	-1.39
C4A G93A	-1.73
C8G G39U C123U	1.42
A84U C124A	1.73
